Tested on: UACC-257 melanoma
ASSAY METHOD TEXT: NCI-60 one-dose screen, 48 h
CONDITION NOTES: 10 µM unless noted
About 83,000 compounds went through this panel and 20% of them were active in at least one assay; those are over-represented in the sample as a whole. Calls of active or inactive are those of the source. The calls were made as follows: active = growth percent below 10; inactive = the rest.
Respond only with the outcome that fits, drawn from active, inactive

The following compounds have reported results that may help.
Cc1ccc(C(C(N)=O)C(C(N)=O)c2ccccc2)cc1 (configuration not stated)	inactive
COc1ccc(/C=C2\C(=O)N=C3N2NC(c2cc(Br)ccc2O)C=C(C)N3c2ccccc2)cc1 (configuration not stated)	inactive
COc1cccc(/C=C/C(=O)c2cc3c(N)c(C(=O)Nc4ccccc4)sc3nc2C)c1	inactive
O=C1COCCN1c1ccc(Nc2nc(Cl)nc(OCc3cn(Cc4ccccc4)nn3)n2)cc1	inactive
C=CCc1c2c(c(OC)c3ccoc13)C(=O)/C(=C/c1ccccc1OC)O2	inactive

stdin: So what was the verdict on COc1ccc(C(=S)N2CCN(c3ccccc3Cl)CC2)cc1OC in this test?
stdout: inactive

stdin: Further, for COc1cc(CNC(=O)/C=C/C=C/c2ccc3c(c2)OCO3)ccc1OCc1cn(-c2ccc(C)c(C)c2)nn1 ?
stdout: inactive

stdin: Same thing, different compound: Cn1c(=O)c2[nH]c(N/N=C/c3ccccc3Br)nc2n(C)c1=O
stdout: inactive

stdin: Query N#CC1CCc2c(c(-c3cn[nH]c3C(F)(F)F)nc3c(F)cc4[nH]ncc4c23)C1 (configuration not stated) next
stdout: inactive

stdin: Try this compound too: Fc1ccc2[nH]cc(-c3nonc3-c3c[nH]c4ccc(Br)cc34)c2c1
stdout: inactive

stdin: Now consider Clc1ccc(Nc2nnc(COc3ccccc3)c3ccccc23)cc1 and answer again.
stdout: active

stdin: Please do the same for CC(C)(C)n1cc(-c2ccnc(NCCNS(=O)(=O)c3cccc(F)c3)c2)c(-c2ccccc2)n1 as well.
stdout: inactive

stdin: Entry COc1ccc(C(=O)C2C(c3ccc(OC)cc3)CN(C)C23C(=O)Nc2ccccc23)cc1 (configuration not stated) please
stdout: inactive

stdin: Do the same for Cc1cc2c(O)c(-c3cccc(Cl)c3)c3sc(=O)oc3c2cc1C please
stdout: inactive

stdin: What about this compound? CCNc1nc(-c2ccc(Cl)c(OC)c2)c(-c2ccnc(NCCCNS(=O)(=O)c3ccc(Cl)cc3)n2)s1
stdout: inactive

stdin: // same read-out, input: COCCn1c(-c2csc(-c3cn(C)c4ccc(OC)cc34)n2)cc2cccnc21
stdout: inactive

stdin: Lookup CCOC(=O)c1c2c(n3ccc(C)cc13)C(=O)c1ccccc1C2=O
stdout: inactive

Reference source: PubChem BioAssay (NCI)
